Listed next: entries and their corresponding IC50.
- assay info: Cytotoxicity against non induced human RKOp27 cells after 48 hrs by XTT assay
- Format: functional, cell-based
- condition context: RKOp27, 48 h
Enter your answer as a number in nM; do not include the unit.

Would you please look over these solved cases?
query smiles | unit text | recorded number
COC(=O)Nc1nc2cc(C(=O)c3cccs3)ccc2[nH]1 | nM | 110
COc1ccc(N=C2c3cccc(Cl)c3C(=O)c3c(Cl)cccc32)cc1O | nM | 160
COc1cc2c(c(OC)c1OC)-c1ccc(OC)c(=O)cc1[C@@H](NC(C)=O)CC2 | nM | 20
CC(=O)O[C@H]1C(=O)[C@@]2(C)[C@H]([C@H](OC(=O)c3ccccc3)[C@]3(O)C[C@H](OC(=O)[C@H](O)[C@@H](NC(=O)c4ccccc4)c4ccccc4)C(C)=C1C3(C)C)[C@]1(OC(C)=O)CO[C@@H]1C[C@@H]2O | nM | 10

The record that follows has no IC50 shown yet.
(Q) // fetch IC50 given entry COc1ccc(N=C2c3ccccc3C(=O)c3ccccc32)cc1O
(A) 170

* * *

- System: P388
- assay info: Antiproliferative activity against mouse P388 cells after 48 hrs by XTT proliferation assay
- Type: functional, cell-based
- condition context: P388, 48 h
property name: pIC50
The quantity pIC50 is defined as the negative base-10 logarithm of the molar concentration.

query smiles | recorded number
COc1ccc(N=C2c3ccccc3C(=O)c3ccccc32)cc1O | 6.64

The record that follows has no pIC50 shown yet.
(Q) // fetch pIC50 given entry COc1ccc(N=C2c3cccc(Cl)c3C(=O)c3c(Cl)cccc32)cc1O
(A) 6.64

* * *

- tested on: Tubulin (Sus scrofa, UniProt P02554+P02550)
- assay info: Inhibition of pig brain tubulin polymerization after 30 mins by turbidimetry analysis
Listed next: entries and their corresponding IC50.
Enter your answer as a number in µM; do not include the unit.

query smiles | IC50 (µM)
O=C1c2ccccc2C(=Nc2ccccc2)c2ccccc21 | 1.45
COc1ccc(N=C2c3cccc(Cl)c3C(=O)c3c(Cl)cccc32)cc1O | 1.11
COc1ccc(N=C2c3ccccc3C(=O)c3ccccc32)cc1 | 1.9

(Q) // fetch IC50 given entry COc1cc(N=C2c3ccccc3C(=O)c3ccccc32)cc(OC)c1
(A) 1.6

(Q) // fetch IC50 given entry COc1ccc(N=C2c3ccccc3C(=O)c3ccccc32)cc1OC
(A) 3.6

(Q) // fetch IC50 given entry COc1ccc(N=C2c3ccccc3C(=O)c3ccccc32)c(OC)c1
(A) 1.6

(Q) // fetch IC50 given entry COc1ccc(N=C2c3ccccc3C(=O)c3ccccc32)cc1O
(A) 0.44
